The measured values listed here are drawn from patent US12435087B2.

# testSystem: DCN1 (DCUND1) protein PONY domain (Homo sapiens (Human))
# Sequence (Q96GG9 60-248): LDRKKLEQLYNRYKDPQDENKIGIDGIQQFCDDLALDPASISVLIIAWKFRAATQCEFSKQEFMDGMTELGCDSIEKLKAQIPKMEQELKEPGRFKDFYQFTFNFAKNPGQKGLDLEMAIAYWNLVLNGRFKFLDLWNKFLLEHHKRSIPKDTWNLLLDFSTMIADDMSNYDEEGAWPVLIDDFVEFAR
# protocolDescription: TR-FRET assay (binding to DCN-1, displacement of FAM-labeled probe)
# measurementSetup: TR FRET IC50 1 hr (nM), 1 hr after treatment with compound
measureName: IC50

compound: C=C(CC(=O)OC)C(=O)NCc1cccc([C@@H]2c3cnn(-c4ccccc4)c3N(CC)C(=O)[C@H]2NC(=O)c2cccc(C(F)(F)F)c2)c1 [Compound I-50]
measureName: IC50
result: 1000 to 3000 nM
--
compound: C=C(CC(=O)OC)C(=O)Nc1cccc([C@@H]2c3c(C)nn(-c4ccccc4)c3N(CC)C(=O)[C@H]2NC(=O)c2cccc(C(F)(F)F)c2)c1 (racemic) [Compound I-41]
measureName: IC50
result: 1000 to 3000 nM
--
compound: CCN1C(=O)[C@H](NC(=O)c2cccc(C(F)(F)F)c2)[C@@H](c2ccccc2N2CC=CC2=O)c2cnn(-c3ccccc3)c21 (racemic) [Compound I-21]
measureName: IC50
result: > 3000 nM
--
compound: CCN1C(=O)[C@@H](NC(=O)c2nccc(C(F)(F)F)n2)[C@H](c2cccc(C(=O)N3CCC[C@@H]3C#N)c2)c2cnn(-c3ccccc3)c21 (mixture of isomers) [Compound I-250]
measureName: IC50
result: 1000 to 3000 nM
--
compound: CCN1C(=O)[C@@H](NC(=O)c2cccc(C(F)(F)F)c2)[C@H](c2cccc(NC(=O)/C(C)=C/C(=O)OC)c2)c2c(C)nn(-c3ccccc3)c21 (racemic) [Compound I-145]
measureName: IC50
result: 1000 to 3000 nM
--
compound: CCN1C(=O)[C@@H](NC(=O)c2nccc(C(F)(F)F)n2)[C@H](c2cccc(NC(=O)/C=C/C(=O)N3CCCC3)c2)c2c(C)nn(-c3ccccc3)c21 (racemic) [Compound I-262]
measureName: IC50
result: 1000 to 3000 nM
--
compound: C/C=C(\CN1CCOCC1)C(=O)NCc1cccc([C@@H]2c3cnn(-c4ccccc4)c3N(CC)C(=O)[C@H]2NC(=O)c2nccc(C(F)(F)F)n2)c1 [Compound I-363]
measureName: IC50
result: 200 to 1000 nM
--
compound: CCN1C(=O)[C@@H](NC(=O)c2cccc(C(F)(F)F)c2)[C@H](c2cccc(CNC(=O)C3=CCN(C)C3)n2)c2cnn(-c3ccccc3)c21 [Compound I-348]
measureName: IC50
result: 1000 to 3000 nM
--
compound: C=C(CC(=O)NCc1cccc([C@H]2c3cnn(-c4ccccc4)c3N(CC)C(=O)[C@@H]2NC(=O)c2cccc(C(F)(F)F)c2)c1)C(=O)OC [Compound I-109]
measureName: IC50
result: 1000 to 3000 nM
